These measurements were taken from the supplement of paper PMC11417369.

Tested on: PfAP2-EXP AP2 domain (GST-tagged)
Method: gcPBM binding intensity (ln(normalized median fluorescence intensity)); higher = stronger DNA binding
In all, about 25,000 sequences were measured (“ln(normalized median fluorescence intensity)”: median about 8.6, highest 2% from about 10 on). Shown is part of a subset that was picked to be rich in the highest values.
Answer NOT MET if gcPBM binding intensity (ln) is under 9, and MET if it is 9 or more.

Is gcPBM binding intensity (ln) at least 9? Consider ATTTTATTTTTTGAGTGTACTAGTTCAACAACTCCG [XGTACX_site8600]
NOT MET

Identify whether the reported gcPBM binding intensity (ln) of the following sequence is 9 or greater: AGGTAGTTCTGTATCACACACATATATATATATATA [CACACA_site2214]
MET

Decide: is the reported value of gcPBM binding intensity (ln) for TATTATTTTAATTATTCACACATTATTATAAAAATT [CACACA_site5538] equal to or greater than 9?
NOT MET

Could you please find out whether AGAATATTTATATGATGTACTTATATATATATATAT [XGTACX_site3021] has gcPBM binding intensity (ln) that meets 9 or exceeds it?
MET

Does gcPBM binding intensity (ln) meet or surpass 9 for GACATAGTATTAAGTTGTACATATATAAAAATAAAT [XGTACX_site1583] ?
NOT MET

###

Test system: PfAP2-EXP AP2 domain (GST-tagged)
Method: gcPBM binding intensity (ln(normalized median fluorescence intensity)); higher = stronger DNA binding
Over roughly 25,000 sequences, “ln(normalized median fluorescence intensity)” has its median near 8.6; the highest 2% begin near 10. The sample holds the highest values, similar sequences and a random draw of the others, so the mix is not that of the screen.
Property Label: gcPBM binding intensity (ln)
Lab note: jot down the number only; don't add units.

Documented gcPBM binding intensity (ln) of ATGTAAATACATATATGTACACAAATATATATATAT [XGTACX_site3537] : 9.8

Looking up ATATATATATATAATAGTACATATATTTTGAAAGAT [XGTACX_site5800] , I found its gcPBM binding intensity (ln) recorded as 9.75

gcPBM binding intensity (ln) reading for ACACACATATATACATGTACATATATATATATATAT [XGTACX_site451] : 10.1

# gcPBM binding intensity (ln) (sequence: `TTTAAGCGTTCACTGCTGCACTTTTATGTTGTGACC` ) is 8.71

gcPBM binding intensity (ln) reported for this sequence TCATACATGTATATGTGTACATATAATGTATATTCC [XGTACX_site6082] : 8.3

// gcPBM binding intensity (ln) value for TCACACATATATTCATGTACATATTAATATTTCCAT [XGTACX_site5387] : 8.85

Query GTAAATACACATATGTGTACATATATATATATATAT [XGTACX_site3696] yields gcPBM binding intensity (ln) of 10.2

Recorded gcPBM binding intensity (ln) (sequence AATTAGATTTACTGAAGTACTTAATTTATTTTATTA [XGTACX_site3407] ): 8.85

Note to self: gcPBM binding intensity (ln) recorded for TATATATATATATGTACACACATATATACCTTTCAT [CACACA_site2679] was 10.1

Input ACACATATATAAATATGTACATATATATATATACAT [XGTACX_site1595] . Output gcPBM binding intensity (ln): 8.61

###

Hi there, I'd appreciate the recorded gcPBM binding intensity (ln) for every entry that follows.
Tested on: PfAP2-EXP AP2 domain (GST-tagged)
Method: gcPBM binding intensity (ln(normalized median fluorescence intensity)); higher = stronger DNA binding
The full ranking holds about 25,000 sequences; the median of “ln(normalized median fluorescence intensity)” is about 8.6, and the highest 2% start at about 10. The sample holds the highest values, similar sequences and a random draw of the others, so the mix is not that of the screen.
Keep the answer to the number alone.

Bench note, PfAP2-EXP AP2 domain (GST-tagged): TTTCTATTACGAACGTGTACATACATTATTCTTAAA [XGTACX_site5816] , gcPBM binding intensity (ln) reads 8.88

Form field, gcPBM binding intensity (ln) with PfAP2-EXP AP2 domain (GST-tagged), item ATAATCATAAAATAAACACACATATATAAATATATT [CACACA_site276] : 8.27

gcPBM binding intensity (ln) value, target or system PfAP2-EXP AP2 domain (GST-tagged), for TATTCCCCCAAACACACACACACACCCACATACCAC [CACACA_site2304] : 9.33

# value of gcPBM binding intensity (ln), PfAP2-EXP AP2 domain (GST-tagged), item CCTTAATATTTTTGAAGTACATATTTATTTTACAAG [XGTACX_site3049] = 8.31

gcPBM binding intensity (ln) of AAAAAAATCACATAAAATACTTTATTTTATATTATA [GTGCAC_negctrl_site372] , assay on PfAP2-EXP AP2 domain (GST-tagged), is 7.89

For the sequence TAGATAGATTAAAATACATGCATATTATTAAAAAAT [TGCATGCA_site739] , the measured gcPBM binding intensity (ln) on PfAP2-EXP AP2 domain (GST-tagged) was 8.84

gcPBM binding intensity (ln) on PfAP2-EXP AP2 domain (GST-tagged) for GACATATTCCCCCCCACACACACACCCACATACATA [CACACA_site2302] is 10.8

For the sequence ACATACATACACCCACGTACGTACCGAAACACCACC [XGTACX_site1212] , the measured gcPBM binding intensity (ln) on PfAP2-EXP AP2 domain (GST-tagged) was 9.11

GET /values?item= AAAAAAATAAATAAATGTACACATATATATATATAT [XGTACX_site4350] &system= PfAP2-EXP AP2 domain (GST-tagged) returns gcPBM binding intensity (ln): 10.2

Field gcPBM binding intensity (ln) (PfAP2-EXP AP2 domain (GST-tagged)), entry AAAAATATAATATAATGTACACAAAAAAAAAAAATC [XGTACX_site1427] : 8.73

Fill in: PfAP2-EXP AP2 domain (GST-tagged) gcPBM binding intensity (ln) for AAATTTATAAATTAAAGTACATATTTCTTGAATATT [XGTACX_site859] = 8.34

Summary line: TATGTATATTTTAATTGTACGTGTATGGTTGTAAAT [XGTACX_site8738] , PfAP2-EXP AP2 domain (GST-tagged), reported gcPBM binding intensity (ln) = 8.79

# gcPBM binding intensity (ln) measured on PfAP2-EXP AP2 domain (GST-tagged) for item ATGAAGAAGTGTAAATGTACATTTTATGTAGAACAA [XGTACX_site6925] = 8.93

The recorded gcPBM binding intensity (ln) with PfAP2-EXP AP2 domain (GST-tagged) for TAGTTGTGAGTTACATGTACATGTATTTATTTTTTA [XGTACX_site7088] was 8.88

TATTATATATATGTTGACATATTTGTACACTCCACT [TGCATGCA_negctrl_site200] tested on PfAP2-EXP AP2 domain (GST-tagged) gave gcPBM binding intensity (ln): 8.79

Field gcPBM binding intensity (ln) (PfAP2-EXP AP2 domain (GST-tagged)), entry TACATATACAGACACACACACACACCCCCACAAAAA [CACACA_site495] : 9.88

Reading of gcPBM binding intensity (ln) for TTTATTTTTTGTGGCACACAGAAGAAACAAGAACAA [CACACA_site1696] with PfAP2-EXP AP2 domain (GST-tagged): 9.12

Assay PfAP2-EXP AP2 domain (GST-tagged), sample ATATATATATATATATGTACATATACACATGTGTGC [XGTACX_site168] , gcPBM binding intensity (ln) read: 10.1

Lab entry: PfAP2-EXP AP2 domain (GST-tagged) assay, sequence ACAAAATAAAACATCTGTACATATTATTATTATAAG [XGTACX_site4802] , gcPBM binding intensity (ln) = 8.34

Reported PfAP2-EXP AP2 domain (GST-tagged) gcPBM binding intensity (ln) for item AATGTGCTCGCTATTACACACTCATTGGGATAAACT [CACACA_site7043] was 8.56

The sequence AGAATAATACAAAAATGTACATTAATAAAAAGATAG [XGTACX_site780] on PfAP2-EXP AP2 domain (GST-tagged): gcPBM binding intensity (ln) was 8.99

Readout gcPBM binding intensity (ln) for TTCACTTTTTTTTTTTTTTTTTTTTTTTTTTTTATT [GTGCAC_negctrl_site350] , test system PfAP2-EXP AP2 domain (GST-tagged), was 8.07

// assay PfAP2-EXP AP2 domain (GST-tagged), entry TGTTCATTTATTTACTTACACACTTTATATATGTGG [CACACA_site1410] , gcPBM binding intensity (ln) value = 8.79

Item ACCTAATTTTTATATTGTACATAATATAATATATAT [XGTACX_site1715] ; assay system PfAP2-EXP AP2 domain (GST-tagged); gcPBM binding intensity (ln) reported as 8.66

Tested on PfAP2-EXP AP2 domain (GST-tagged): TTTCTTATTTTGGATTGTACGTATATTTTTCATTTT [XGTACX_site224] . Observed gcPBM binding intensity (ln): 8.93

Measured on PfAP2-EXP AP2 domain (GST-tagged), TACCATTATTTTAAGTGTACATACTAATTTATATAT [XGTACX_site6548] has a documented gcPBM binding intensity (ln) of 8.61

The observed gcPBM binding intensity (ln) for ATATATTATATAAAGTGTACAAAAAAAATATATAAA [XGTACX_site8065] when tested with PfAP2-EXP AP2 domain (GST-tagged) stands at 8.91

Reading of gcPBM binding intensity (ln) for TATGTAACAAAAAAAAGTACACATATATATAGTGTA [XGTACX_site7772] with PfAP2-EXP AP2 domain (GST-tagged): 8.52

With PfAP2-EXP AP2 domain (GST-tagged) as the test system, ATACACACATATATGTGTACATATACATATATATAT [XGTACX_site6744] showed gcPBM binding intensity (ln) of 9.53

gcPBM binding intensity (ln) on PfAP2-EXP AP2 domain (GST-tagged) for TATATATATATAATGTGTACACAAATATATATTATA [XGTACX_site8786] is 9.74

Form field gcPBM binding intensity (ln) for item `CATTATATGATTTATGTGCACATTCATTTATTTTAA` on PfAP2-EXP AP2 domain (GST-tagged): 8.83

Record for AAAAAATGCGACATGTGTACACATATATATATATAT [XGTACX_site1679] under target or system PfAP2-EXP AP2 domain (GST-tagged): gcPBM binding intensity (ln) reported as 10.4

So the reported gcPBM binding intensity (ln) for ATATATTTCTGTCAAGCACACATAATATTAATATAT [CACACA_site7993] , on PfAP2-EXP AP2 domain (GST-tagged), turned out to be 8.86

Form field, gcPBM binding intensity (ln) with PfAP2-EXP AP2 domain (GST-tagged), item TCTTACGGATTCATTGTGCACATATATATATATATA [GTGCAC_site9896] : 10.2

Entry ATTATATATATAAAGTGTACAAAAAAAAAAAAAAAA [XGTACX_site3134] ; assay system PfAP2-EXP AP2 domain (GST-tagged); gcPBM binding intensity (ln) recorded at 8.46

Query TTGTTCTTTCAAATTATACACACCAAAAAAAAAAAA [CACACA_site3070] on PfAP2-EXP AP2 domain (GST-tagged); gcPBM binding intensity (ln) returned: 8.53

GET /values?item= ATCTGACAAAAGTGTACACATATATATATATATATA [CACACA_site4814] &system= PfAP2-EXP AP2 domain (GST-tagged) returns gcPBM binding intensity (ln): 10.2

Field gcPBM binding intensity (ln) (system: PfAP2-EXP AP2 domain (GST-tagged)) for entry TATTTTTAAATATAAAGTACTTATATTAACTACGAA [XGTACX_site1524] = 8.27
